Values from ChEMBL document CHEMBL1201862

- Tested on: LOX IMVI
- procedureSummary: NCI tumour cell line growth inhibition, 48 h
Calls of active or inactive are those of the source. Rule as the data show it: active = GI50 up to about 1.1 µM and inactive = higher.
resultType: GI50

The examples below pair each entry with its known result.
N/C(=N\O)N/N=C\c1c2ccccc2c(Cl)c2ccccc12	2.55 µM (inactive)
COc1cc(/C=C2/C(=O)N(C(=O)OCc3ccccc3)C(Cc3cc(OC)c(OC)c(C)c3OC)C(=O)N2Cc2ccccc2)c(OC)c(C)c1OC (stereo unspecified)	> 100 µM (inactive)
CC(C)(C)C(=O)OCC(COC(=O)C(C)(C)C)[N+](=O)[O-]	> 100 µM (inactive)
Nc1c(C(=O)Nc2ccc(C3=NCCN3)cc2)cccc1C(=O)Nc1ccc(C2=NCCN2)cc1	> 100 µM (inactive)
O=C1C=CC2(O[C@@H](Cc3ccccc3)[C@H](Cc3ccccc3)O2)C(SC(=O)c2ccccc2)C1 (stereo partly specified)	0.38 µM (active)

Would you kindly share the measured GI50 for N#CC1=C(N)Nc2nc3ccccc3n2C1c1ccccc1 (stereo unspecified) ? 62.7 µM (inactive)

Follow-up item: NS(=O)(=O)c1ccc(NC(=S)NC(=O)Nc2ccc(Cl)c(Cl)c2)cc1 6.17 µM (inactive)

Please give the result for COc1ccc(C(c2cc3c(cc2O)OCO3)N2CCOCC2)cc1OC (stereo unspecified) too. 4.01 µM (inactive)

Similarly, O=C1Nc2ccccc2/C1=N/N1C(=O)/C(=C/c2ccccc2S)N=C1c1ccccc1 ? 44.9 µM (inactive)

Please do the same for CN(C)c1ccc(N=O)c(O)c1.CN(C)c1ccc(N=O)c(O)c1.[SiH4] as well. 5.92 µM (inactive)

O=Cc1cc2c(s1)C(=O)c1sccc1C2=O , same question. 0.0376 µM (active)

What about this compound? Nc1nc(N)c2c(CCc3ccc(C(=O)N[C@@H](CCC(=O)O)C(=O)O)cc3)ccnc2n1 < 0.01 µM (active)

Follow-up item: CCOP(=O)(OCC)C(Nc1ccc(F)cc1)c1ccccc1 (stereo unspecified) > 100 µM (inactive)

Lookup C[Si](C)(C)/C=C\CCO > 100 µM (inactive)

Proceed to CC(CC(=O)N1C(=O)C(C)(C)[C@@H](O)[C@H]1CC(C)C(Cl)(Cl)Cl)C(Cl)(Cl)Cl (stereo partly specified) > 100 µM (inactive)

# iterate: CC(C)(C)OC(=O)N(O)[C@@H]1CC[C@H](n2cnc3c(N)ncnc32)C1 > 100 µM (inactive)

###

- System: COLO 205
- procedureSummary: NCI tumour cell line growth inhibition, 48 h
Active and inactive are the calls of the source. Cut-off read from the data, not from the text of the source: active = GI50 up to about 1.1 µM and inactive = higher. Starred links: 1 amine or outer side, 2 acyl side, 3 side chain; linkers in the order of their positions; H or OH if unused. Positions of bridges follow the written chain, without caps; N, C: chain ends. Non-standard residues stand in square brackets, D forms with d. Residues, ends and D or L forms follow the SMILES beside them. ξ: configuration not given here. *: point of attachment. γ4hArg(2R,3R-(OH)2) = N=C(N)NCCC[C@H](N[*:1])[C@@H](O)[C@@H](O)C(=O)[*:2]; Gln(3S,4R-Me2) = C[C@H]([C@H](N)C(=O)O)[C@@H](C)C(N)=O; X50 = CC(C)C[C@H](C)[C@@H](O)[C@@H](C)C(=O)*; X51 = COC(c1ccc(O)cc1)C(N[*:1])C(=O)[*:2]; NMeQ = CN[C@@H](CCC(N)=O)C(=O)O; Thr(3ξ) = CC(O)[C@H](N)C(=O)O; NMeA = CN[C@@H](C)C(=O)O
Mark one answer only. Choices: active, inactive

Sample answers from the record:
N#CC1=C(N)Nc2nc3ccccc3n2C1c1ccccc1 (stereo not drawn)	inactive
Cn1cc(-c2cnc(-c3cn(C)c4ccccc34)cn2)c2ccccc21	inactive
NC(CCOCCP(=O)(O)CCC1C=CC=CC1)C(=O)O (stereo not drawn)	inactive
C=C(CCCO)[C@@H]1CC[C@@](C)(O)[C@H]1C	inactive
COC(c1ccc(O)cc1)C1NC(=O)[C@H](CCC(N)=O)N(C)C(=O)[C@H](CC(C)C)NC(=O)[C@@H](CCCN=C(N)N)NC(=O)[C@H](C(C)O)NC(=O)[C@@H](NC(=O)[C@@H](NC(=O)[C@H](O)[C@H](O)[C@H](CCCN=C(N)N)NC(=O)[C@H](C)NC(=O)[C@H](C)[C@H](O)[C@@H](C)CC(C)C)[C@@H](C)[C@@H](C)C(N)=O)[C@@H](C)OC(=O)[C@H](C)N(C)C1=O (stereo partly drawn) (X50-A[γ4hArg(2R,3R-(OH)2)][Gln(3S,4R-Me2)]T[Thr(3ξ)][dR]L[NMeQ][X51][NMeA]; ester 4-C)	active

Hey, what did the test say about CC(=O)Nc1ccc(-c2nnc(SCC(=O)Nc3ccc([N+](=O)[O-])cc3)o2)cc1 ? inactive

Queued: O=C1CCCCC1CN1CCCC1 (stereo not drawn) inactive

Next molecule: COC(=O)C1=C(N)C2=C(N)Oc3ccccc3C2CC1=C(C#N)C#N (stereo not drawn) inactive

Please answer likewise for NC1C2C=CC(C2)C1C(=O)O (stereo not drawn) inactive

Repeat with C/C(=C\CC/C=C(\C)CC/C=C(\C)CCC1SC1(C)C)CC/C=C(\C)CCC1OC1(C)C (stereo not drawn) inactive

Now consider COc1ccc([N+](=O)[O-])cc1[I+]c1cc([N+](=O)[O-])ccc1OC and answer again. inactive

Also need O=C1/C(=C/c2ccc(OC(=O)c3ccccc3)cc2)CCC/C1=C\c1ccc(OC(=O)c2ccccc2)cc1 , thanks. inactive

For Cc1cc(C)nc(NS(=O)(=O)c2ccc(NC(=O)c3cccc4c(Nc5ccc(S(=O)(=O)N=C(N)N)cc5)c5ccccc5nc34)cc2)n1 then? inactive

Further, for Cc1ccc(O)c(Cc2nc3ccccc3nc2-c2cccc(Br)c2)c1 ? inactive

Check COc1cc(/C=C2\C(=O)N(C(=O)Cc3ccccc3)N=C2C)cc(OC)c1OC too. inactive

And the next one, COc1cc(Nc2nnc3n2S(=O)(=O)c2cc(C)c(Cl)cc2S3)cc(OC)c1 ? inactive

Please give the result for CC12CC3C(CC1SCC(=O)O2)C3(C)C (stereo not drawn) too. inactive

Same lookup for CC1(C)Cc2ccccc2C(C)(Cl)C(=O)N1 (stereo not drawn) , please. inactive

Thanks! And CC(C)(C)c1ccc2c(c1)S(=O)(=O)Nc1ccccc1NS(=O)(=O)c1cc(C(C)(C)C)ccc1OCCOCCOCCO2 ? inactive

Let us now turn to Cc1cc2c(c(/C=N/c3ccc([N+](=O)[O-])cc3)c1)OC1(C=C2)Oc2ccccc2C(=O)N1C (stereo not drawn) inactive

Also check COc1cc(C2SCCCCCCCCCCSC(c3ccc(O)c(OC)c3)SCCCCCCCCCCS2)ccc1O (stereo not drawn) inactive

###

- Test system: MOLT-4
- procedureSummary: NCI tumour cell line growth inhibition, 48 h
Calls of active or inactive are those of the source. Cut-off read from the data, not from the text of the source: active = GI50 up to about 1.1 µM and inactive = higher.
Choose one outcome from this list and give only that: active, inactive

Some solved entries appear below for comparison.
CCOC(=O)/C(=C\c1ccc(O)c(OC)c1)C(=O)c1ccccc1	inactive
CCOc1ccc2[nH]c3c(C)c4ccncc4c(C)c3c2c1	active
CC(C)(C)OC(=O)N(O)[C@@H]1CC[C@H](n2cnc3c(N)ncnc32)C1	inactive
Cc1cn(C2CC(OC3CCCCO3)C(CO)O2)c(=O)[nH]c1=O (stereo not given)	inactive
N#Cc1c(-c2ccc(Cl)cc2)c2c(n(C3OC(CO)C(O)C(O)C3O)c1=S)CCCC2 (stereo not given)	inactive
CC[C@]1(c2ccc3c(c2)OCO3)C=[N+]([O-])O[C@H](OC2CCCC2(c2ccccc2)c2ccccc2)[C@@H]1OC(C)=O (stereo not given in full)	inactive
COc1cc(C2c3cc4c(cc3OC(Nc3ccc(C(=O)O)cc3)C2C)OCO4)cc(OC)c1OC (stereo not given)	active
Cc1cc(=O)nc(S(=O)(=O)NC(=S)Nc2ccc(Br)cc2)[nH]1	inactive
CC(=O)C1C(=O)C(=O)N(c2ccc(Br)cc2)C1=O (stereo not given)	inactive
CC(C)(C)NC(=O)NC12CC3CC(CC(F)(C3)C1)C2	inactive

Write down the call the test reported for this compound. Item: Cc1sc2ncnc(NCCc3ccccc3)c2c1C inactive

Can you check CC(=O)Nc1ccc(-c2nnc(SCC(=O)Nc3ccc([N+](=O)[O-])cc3)o2)cc1 next? inactive

Likewise for C[Si](C)(C)/C=C\CCO ? inactive

Moving on to the next compound: CC(=O)Nc1ccc(C2=N/C(=C\c3ccc(Cl)c(Cl)c3)C(=O)O2)cc1 inactive

Also COC(=O)C(CCC(=O)CCl)N1C(=O)c2ccccc2C1=O (stereo not given) , if possible. inactive

// same read-out, input: CC1C(NNC(N)=O)Oc2cc3c(cc2C1c1ccccc1O)OCO3 (stereo not given) inactive

What do you have for CC(C)C1CN(C(=O)OCc2ccccc2)C2N1C(=O)C2(C)OCc1ccccc1 (stereo not given) ? inactive

// same read-out, input: O=c1nc2n3c4c(cccc4nc-2c(=O)[nH]1)CCC3 inactive

Can you handle COC1(OC)CC2C(=O)N(Cc3ccccc3)C1C=C2S(=O)(=O)c1ccccc1 (stereo not given) next? inactive

Item: N#CC1=C(N)Nc2nc3ccccc3n2C1c1ccccc1 (stereo not given) inactive
